Let's look at some compounds and their measured ED50.
- System: Mus musculus
- Assay Overview: Effective dose required for antagonist activity against pentylenetetrazole-induced seizures in mice when administered intraperitoneally
- Format: functional
- Measurement Conditions: ip

>  <Compound>
Cc1ccc(-c2nnc(S(C)(=O)=O)n2C)cc1

>  <Measured On>
Mus musculus

>  <ED50>
> 200 mg/kg

$$$$
>  <Compound>
CSc1nnc(-c2ccc(C)cc2)n1C

>  <Measured On>
Mus musculus

>  <ED50>
> 100 mg/kg

$$$$
>  <Compound>
CSc1nnc(-c2cccc(F)c2)n1C

>  <Measured On>
Mus musculus

>  <ED50>
> 200 mg/kg

$$$$
>  <Compound>
COc1ccc(-c2nnc(S(C)(=O)=O)n2C)cc1

>  <Measured On>
Mus musculus

>  <ED50>
> 200 mg/kg

$$$$
>  <Compound>
CC[S+]([O-])c1nnc(-c2ccccc2F)n1C (stereo not drawn)

>  <Measured On>
Mus musculus

>  <ED50>
> 200 mg/kg

$$$$
>  <Compound>
CSc1nc(-c2ccccc2)n(C)n1

>  <Measured On>
Mus musculus

>  <ED50>
> 100 mg/kg

$$$$
>  <Compound>
O=C1NC(=O)C(c2ccccc2)(c2ccccc2)N1

>  <Measured On>
Mus musculus

>  <ED50>
> 32 mg/kg

$$$$
>  <Compound>
Cn1c(-c2cccc3ccccc23)nnc1[S+](C)[O-] (stereo not drawn)

>  <Measured On>
Mus musculus

>  <ED50>
> 200 mg/kg

$$$$
>  <Compound>
Cn1nc(-c2ccccc2)nc1S(C)(=O)=O

>  <Measured On>
Mus musculus

>  <ED50>
> 200 mg/kg

$$$$
>  <Compound>
CN1C(=O)CN=C(c2ccccc2)c2cc(Cl)ccc21

>  <Measured On>
Mus musculus

>  <ED50>
1.5 mg/kg

$$$$
>  <Compound>
Cn1nc(-c2cccc(F)c2)nc1S(C)(=O)=O

>  <Measured On>
Mus musculus

>  <ED50>
> 100 mg/kg

$$$$
>  <Compound>
CSc1n[nH]c(-c2ccc(F)cc2)n1

>  <Measured On>
Mus musculus

>  <ED50>
> 200 mg/kg

$$$$
>  <Compound>
Cn1c(-c2ccccc2F)nnc1S(C)(=O)=O

>  <Measured On>
Mus musculus

>  <ED50>
> 100 mg/kg

$$$$
>  <Compound>
CSc1nnc(-c2ccc(F)cc2)n1C

>  <Measured On>
Mus musculus

>  <ED50>
> 200 mg/kg

$$$$
>  <Compound>
COc1ccc(-c2nnc([S+](C)[O-])n2C)cc1 (stereo not drawn)

>  <Measured On>
Mus musculus

>  <ED50>
> 100 mg/kg

$$$$
>  <Compound>
Cn1c(-c2ccccc2)nnc1[S+](C)[O-] (stereo not drawn)

>  <Measured On>
Mus musculus

>  <ED50>
> 100 mg/kg

$$$$
>  <Compound>
Cn1c(-c2ccccc2)nnc1S(C)(=O)=O

>  <Measured On>
Mus musculus

>  <ED50>
55 mg/kg

$$$$
>  <Compound>
CSc1nnc(-c2ccccc2F)n1C

>  <Measured On>
Mus musculus

>  <ED50>
61.3 mg/kg

$$$$

---

- System: Mus musculus
- Assay Overview: Effective dose required for antagonist activity against pentylenetetrazole-induced seizures in mice when administered intraperitoneally
- Format: functional
- Measurement Conditions: ip
Readout Kind: ED50

>  <Molecule>
Cn1c(-c2ccccc2F)nnc1[S+](C)[O-] (centres undefined)

>  <Value Observed>
57.9 mg/kg

$$$$
>  <Molecule>
Cn1c(-c2cccs2)nnc1S(C)(=O)=O

>  <Value Observed>
> 200 mg/kg

$$$$
>  <Molecule>
Cn1c(-c2cccc3ccccc23)nnc1S(C)(=O)=O

>  <Value Observed>
> 200 mg/kg

$$$$
>  <Molecule>
CSc1nnc(-c2cccc3ccccc23)n1C

>  <Value Observed>
> 200 mg/kg

$$$$
>  <Molecule>
Cn1c(-c2cccc(F)c2)nnc1S(C)(=O)=O

>  <Value Observed>
> 200 mg/kg

$$$$
>  <Molecule>
Cc1ccc(-c2nnc([S+](C)[O-])n2C)cc1 (centres undefined)

>  <Value Observed>
> 200 mg/kg

$$$$
>  <Molecule>
Cn1nc(-c2ccc(Cl)cc2)nc1S(C)(=O)=O

>  <Value Observed>
> 200 mg/kg

$$$$
>  <Molecule>
Cn1nc(S(C)(=O)=O)nc1-c1ccccc1

>  <Value Observed>
> 200 mg/kg

$$$$
>  <Molecule>
Cn1c(-c2cccs2)nnc1[S+](C)[O-] (centres undefined)

>  <Value Observed>
> 200 mg/kg

$$$$
>  <Molecule>
CSc1nnc(-c2ccccc2Cl)n1C

>  <Value Observed>
> 50 mg/kg

$$$$
>  <Molecule>
CSc1nnc(-c2cccs2)n1C

>  <Value Observed>
> 100 mg/kg

$$$$
>  <Molecule>
COc1ccc(-c2nnc(SC)n2C)cc1

>  <Value Observed>
> 100 mg/kg

$$$$
>  <Molecule>
CSc1nnc(-c2ccc(Cl)cc2)n1C

>  <Value Observed>
> 200 mg/kg

$$$$
>  <Molecule>
Cn1nc([S+](C)[O-])nc1-c1ccccc1 (centres undefined)

>  <Value Observed>
> 200 mg/kg

$$$$

meta.source: ChEMBL document CHEMBL1127484
